Target or system Staphylococcus aureus ATCC 25923: recorded MIC listed per item.
Number first, unit second: that is the form wanted.

Give MIC (Staphylococcus aureus ATCC 25923) of the following compound: `CC(C)C[C@H](NC(=O)[C@H](CCCN=C(N)N)NC(=O)[C@@H](NC(=O)[C@H](CCCN=C(N)N)NC(=O)[C@@H](NC(=O)[C@H](CCCCN)NC(=O)[C@@H](NC(=O)[C@H](CCCN=C(N)N)NC(=O)[C@H](CC(C)C)NC(=O)[C@H](CCCN=C(N)N)NC(=O)[C@@H](N)C(C)C)C(C)C)[C@@H](C)O)C(C)C)C(=O)N[C@@H](CCCCN)C(N)=O`
64 µM

Queued: `CC[C@H](C)[C@H](NC(=O)[C@H](CCCCN)NC(=O)[C@H](CC(C)C)NC(=O)[C@H](C)NC(=O)[C@H](CCCCN)NC(=O)CNC(=O)[C@H](CC(C)C)NC(=O)[C@@H](NC(=O)[C@H](CO)NC(=O)CNC(=O)[C@H](CC(C)C)NC(=O)CN)C(C)C)C(=O)NCC(=O)N[C@@H](C)C(=O)N[C@@H](CC(N)=O)C(=O)N[C@@H](CC(C)C)C(=O)N[C@@H](CC(C)C)C(N)=O`
6 µM

* * *

MIC, Staphylococcus epidermidis: measured values

If you can, please state the reported MIC value of `CC[C@H](C)[C@H](NC(=O)[C@H](CCCCN)NC(=O)[C@H](CCCCN)NC(=O)[C@H](Cc1ccccc1)NC(=O)[C@H](CC(C)C)NC(=O)[C@H](CCCCN)NC(=O)[C@H](Cc1c[nH]c2ccccc12)NC(=O)[C@@H](N)CCCCN)C(=O)NCC(=O)N[C@@H](CCCCN)C(=O)N[C@H](C(=O)N[C@@H](CC(C)C)C(=O)N[C@@H](CCCCN)C(=O)N[C@H](C(=O)N[C@@H](CC(C)C)C(=O)O)C(C)C)C(C)C` .
0.5 µM

Try this compound next: `CC[C@H](C)[C@H](NC(=O)CN)C(=O)N[C@@H](CC(C)C)C(=O)N[C@@H](CO)C(=O)N[C@@H](CO)C(=O)N[C@@H](CC(C)C)C(=O)N[C@@H](CC(C)C)C(=O)N[C@@H](CCCCN)C(=O)N[C@@H](CCCCN)C(=O)N[C@@H](Cc1c[nH]c2ccccc12)C(=O)N[C@@H](CCCCN)C(=O)N[C@@H](CCCCN)C(=O)N[C@H](C(=O)N[C@H](C(=O)N[C@@H](C)C(=O)N[C@@H](CCCCN)C(N)=O)[C@@H](C)CC)[C@@H](C)CC`
2.7 µM

Next record, please: `CC[C@H](C)[C@H](NC(=O)CNC(=O)[C@H](CCCCN)NC(=O)[C@H](C)NC(=O)[C@@H](NC(=O)[C@H](CCCCN)NC(=O)[C@@H](N)CC(C)C)[C@@H](C)CC)C(=O)N[C@H](C(=O)N[C@@H](CCCCN)C(=O)N[C@@H](CO)C(=O)N[C@@H](CC(C)C)C(=O)O)[C@@H](C)CC`
≥ 84.5 µM

* * *

Tested on: Pseudomonas aeruginosa ATCC 9027
PROTOCOL TEXT: ≥ marks a high value that may be exact or a test limit, other limits are often not marked, values filed in µg/mL are converted to µM
READOUT LABEL: MIC (µM)
Quick reminder: number only, in µM, skip the unit.

If you can, please state the reported MIC value of CC(C)C[C@H](NC(=O)[C@H](CCCCN)NC(=O)[C@H](CCCCN)NC(=O)[C@H](C)NC(=O)[C@H](CC(C)C)NC(=O)[C@H](CCCCN)NC(=O)[C@H](C)NC(=O)[C@H](CCCCN)NC(=O)[C@H](CCCCN)NC(=O)[C@H](C)NC(=O)[C@H](CC(C)C)NC(=O)[C@H](CCCCN)NC(=O)[C@H](CCCCN)NC(=O)[C@H](C)NC(=O)[C@@H](N)Cc1ccccc1)C(N)=O [FAKKLAKKAKLAKKL] .
59.3

Also CC(C)C[C@H](NC(=O)[C@H](C)NC(=O)[C@H](CCCCN)NC(=O)[C@H](CCCCN)NC(=O)[C@H](C)NC(=O)[C@H](CCCCN)NC(=O)[C@H](CCCCN)NC(=O)[C@H](CC(C)C)NC(=O)[C@H](C)NC(=O)[C@H](CCCCN)NC(=O)[C@H](CCCCN)NC(=O)[C@H](C)NC(=O)[C@H](CC(C)C)NC(=O)[C@H](C)NC(=O)[C@@H](N)Cc1ccccc1)C(N)=O [FALAKKALKKAKKAL] , if possible.
15.3

What would you report for NCCCC[C@H](NC(=O)[C@H](Cc1c[nH]c2ccccc12)NC(=O)[C@H](Cc1c[nH]c2ccccc12)NC(=O)[C@H](CCCCN)NC(=O)[C@H](Cc1c[nH]c2ccccc12)NC(=O)[C@H](Cc1c[nH]c2ccccc12)NC(=O)[C@H](CCCN=C(N)N)NC(=O)[C@H](Cc1c[nH]c2ccccc12)NC(=O)[C@H](Cc1c[nH]c2ccccc12)NC(=O)[C@H](CCCN=C(N)N)NC(=O)[C@H](CCCCN)NC(=O)[C@@H](N)CCCN=C(N)N)C(=O)N[C@@H](CCCN=C(N)N)C(N)=O [RKRWWRWWKWWKR] ?
7.46
